Origin of values: PubChem BioAssay (Tox21)

test: qHTS assay to identify small molecule agonists of the progesterone receptor (PR) signaling pathway - cell viability counter screen (AID 1346799); settings: PR-UAS-bla HEK293T viability, CellTiter-Glo luminescence, 16 h; series mostly up to 92.4 µM; note: nearly all actives have a fitted effect of over 45% in size
Inconclusive results are not listed. Activity calls are given as the source filed them. Calls come from the whole dose curve.
Pick one and only one: true (1) = active, false (0) = inactive

Previously resolved entries follow.
INSERT INTO results (cpd_smiles, category) VALUES
  ('CN(C)CCN(Cc1ccc(Cl)cc1)c1ccccn1', 'false (0)'),
  ('CNCCCCOc1ccccc1Cc1ccccc1', 'true (1)'),
  ('CN1CCC(N(Cc2cccs2)c2ccccc2)CC1', 'true (1)');

IN: I'd appreciate the recorded outcome for CCCCCCCCCOS(=O)(=O)O from this test.
OUT: false (0)

====

test: qHTS assay to identify small molecule agonists of the RXR signaling pathway - cell viability counter screen (AID 1159529); conditions: RXR-alpha-bla HEK293T viability, CellTiter-Glo, 16 h; series mostly up to 76.8 µM;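 note: HEK 293T cells carrying an RXR-alpha UAS beta-lactamase reporter; nearly all actives have a fitted effect of over 50% in size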
Inconclusive results are not listed. Activity calls are given as the source filed them. The call rests on the fitted dose curve; in most records, active means well fitted cell-killing curve with a large enough effect in the repeat runs; inconclusive means weak or mixed curves, or effect the other way; inactive means no such curve, though single readings can be large or run the other way.
// allowed return values: true (1) for active, false (0) for inactive

Consider the following illustrative entries.
INSERT INTO measurements (compound, category) VALUES
  ('COc1ccnc(CS(=O)c2nc3ccc(OC(F)F)cc3[nH]2)c1OC (centres undefined)', 'false (0)'),
  ('O=S(c1cc(Cl)cc(Cl)c1O)c1cc(Cl)cc(Cl)c1O', 'false (0)'),
  ('C=CC(=O)OCCOc1ccccc1', 'false (0)'),
  ('Cc1c(N)cccc1[N+](=O)[O-]', 'false (0)'),
  ('CN(C)CCN(Cc1ccccc1)c1ccccn1', 'false (0)');

IN: Just curious, what result did O=C1c2ccccc2S(=O)(=O)N1CCCCN1CCN(c2ncccn2)CC1 get here?
OUT: false (0)

IN: Assay outcome for CC(C)O.CC(C)O.CCOC(=O)/C=C(\C)O.CCOC(=O)/C=C(\C)O.[Ti] : what was it?
OUT: false (0)

====

Test: qHTS assay to identify small molecule antagonists of the sonic hedgehog signaling (Shh) pathway - cell viability counter screen (AID 1259367); note: nearly all actives have a fitted effect of over 55% in size
Conditions: NIH/3T3 Gli1-Luc viability, CellTiter-Fluor, 24 h; series mostly up to 92.4 µM
Source text: National Center for Advancing Translational Sciences [NCATS] NIH Chemical Genomics Center [NCGC] U.S. Environmental Protection Agency [EPA] National Institutes of Environmental Health Sciences [NIEHS] National Toxicology Program [NTP] U.S. Food and Drug Administration [FDA] The sonic hedgehog (Shh) pathway is essential for normal embryonic development. Dysregulation of the Shh pathway can cause severe developmental defects in organs. […]
Records with an inconclusive call do not appear. Calls of active or inactive are those of the source. Calls follow the shape of the dose curve; as a rule, active = well fitted cell-killing curve with a large enough effect in the repeat runs; inconclusive = weak or mixed curves, or effect the other way; inactive = no such curve, though single readings can be large or run the other way.
Thanks in advance; please answer with one of these: class 1 = active, class 0 = inactive

Illustrative cases are given below, each with its answer.
INSERT INTO measurements (compound, category) VALUES
  ('O=[N+]([O-])c1ccc2[nH]ncc2c1', 'class 0'),
  ('CC(C)(COC(=O)c1ccccc1)COC(=O)c1ccccc1', 'class 0'),
  ('CC(=O)c1cccc([N+](=O)[O-])c1', 'class 0'),
  ('O=C(O)c1ccco1', 'class 0'),
  ('C=C(C)C(=O)OCC', 'class 0'),
  ('CC(C)Nc1ccc(NC(C)C)c2c1C(=O)c1ccccc1C2=O', 'class 0'),
  ('CN(C)CCN(Cc1ccsc1)c1ccccn1', 'class 0'),
  ('CC(C)Cc1ccc(C(C)C(=O)OCc2ccccn2)cc1 (configuration not stated)', 'class 0');

IN: Hi, do you know how Cc1oc2c(NC(=O)c3c(Cl)cccc3Cl)cccc2c1C(C)(C)O came out in this test?
OUT: class 0

IN: Recorded call for Nc1ncn([C@H]2C[C@H](O)[C@@H](CO)O2)c(=O)n1 ?
OUT: class 0

IN: Look up the recorded call for O=[N+]([O-])c1cccc(S(=O)(=O)O)c1 in this test.
OUT: class 0

IN: Lab log entry: CC1(c2ccccc2)OC(C(=O)O)=CC1=O (configuration not stated) — outcome as called in the assay?
OUT: class 0

IN: Test call for this compound, please: CC1=CC=C(C(C)C)CC1
OUT: class 0

IN: Name the outcome recorded for O=[N+]([O-])c1ccc(NCCO)c(OCCO)c1 in the assay.
OUT: class 1
